# assayed.target: T1, human Notch1 NRR_Avi_His recombinant protein (human, UniProt P46531 1434-1737)
# T1 construct: Secreted from CHO-PACE cells; cleaved at S1 into an N-terminal ~26 kDa half (LNR-A, B, C, HD1) and a C-terminal ~12 kDa half (HD2 and tag) that stay associated non-covalently; written here as one chain; also called recombinant human Notch1 NRR; human Notch1 NRR immunogen
# T1 sequence: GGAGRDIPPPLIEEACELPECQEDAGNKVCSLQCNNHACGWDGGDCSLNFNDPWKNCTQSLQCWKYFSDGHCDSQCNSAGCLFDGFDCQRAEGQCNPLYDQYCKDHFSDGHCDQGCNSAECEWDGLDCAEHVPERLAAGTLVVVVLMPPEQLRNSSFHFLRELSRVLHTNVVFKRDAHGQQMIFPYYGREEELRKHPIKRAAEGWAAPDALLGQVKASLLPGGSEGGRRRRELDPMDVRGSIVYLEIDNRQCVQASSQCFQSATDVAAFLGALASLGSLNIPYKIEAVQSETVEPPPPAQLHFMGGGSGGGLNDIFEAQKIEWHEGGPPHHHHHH
# method.summary: SPR (Biacore T100), antibody captured by anti-human IgG-Fc, NRR_Avi_His as analyte, 1:1 Langmuir model
koff strictly less than 0.0004 s⁻¹ = TRUE. Otherwise FALSE.

humanized 351 VH1.0/VL1.4 (antibody, human IgG1, V domains shown) VH: EVQLVESGGGLVQPGGSLRLSCAASGFTFSHYGMNWVRQAPGKGLEWVASISRSGSYIRYVDTVKGRFTISRDNAKNSLYLQMNSLRAEDTAVYYCAREGQFGDYFEYWGQGTLVTVSS VL: DIQMTQSPSSLSASVGDRVTITCRASQKISTNLHWYQQKPGKAPKLLIKYASQTISGVPSRFSGSGSGTDFTLTISSLQPEDFATYYCQQTNSWPLTFGGGTKVEIK
FALSE
humanized 438 VH1.1/VL1.3 (antibody, human IgG1, V domains shown) VH: EVQLVESGGGLVQPGGSLRLSCAASGFTFSSFAMAWVRQAPGKGLEWVASISYGGADTYYRDSVKGRFTISRDNAKNSLYLQMNSLRAEDTAVYYCAKDLPYYGYTPFVMDAWGQGTLVTVSS VL: DIQLTQSPSSLSASVGDRVTITCRASQRINTDLHWYQQKPGKAPKLLIYFASQTISGVPSRFSGSGSGTDFTLTISSLQPEDFATYYCQQSNSWPYTFGQGTKLEIK
FALSE
humanized 438 VH1.1/VL1.8 (antibody, human IgG1, kappa, V domains shown, full chains (VH1.1)-hIgG1-3M and (VL1.8)-hkappa) VH: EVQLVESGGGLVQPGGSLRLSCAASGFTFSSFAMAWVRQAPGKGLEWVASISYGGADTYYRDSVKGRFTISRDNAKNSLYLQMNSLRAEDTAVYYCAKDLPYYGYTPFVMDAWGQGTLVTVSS VL: DIQMTQSPSSLSASVGDRVTITCRASQRINTDLHWYQQKPGKAPKVLIKFASQTISGVPSRFSGSGSGTDFTLTISSLQPEDFATYYCQQSNSWPYTFGQGTKLEIKR
FALSE
rat 438-hIgG1 (antibody, V domains shown, also called r438-hIgG) VH: AVQLVESGGGLVQPGRSLKLSCTASGFTFSSFAMAWVRQAPTKGLEWVASISYGGADTYYRDSVKGRFTISRDNAKSSLYLQMDSLRSEDTSTYYCAKDLPYYGYTPFVMDAWGQGTSVTVSS VL: DIMLTQSPPTLSVTPGETISLSCRASQRINTDLHWYQQKPNESPRVLIKFASQTISGVPSRFSGSGSGTDFTLNINRVEPEDFSVYYCQQSNSWPYTFGAGTKLELK
TRUE

Attention now turns to another entry.
# check: koff < 0.0004 s⁻¹ for parental rat 351 (antibody, V domains shown, Rat monoclonal IgG from a hybridoma) VH: EVQLVESGGGLVQPGRSLKVSCLASGFTFSHYGMNWIRQAPGKGLDWVASISRSGSYIRYVDTVKGRFTVSRDIAKNTLYLQMTSLRSEDTALYYCAREGQFGDYFEYWGQGVMVTVSS VL: DIMLTQSPATLSVTPGERISLSCRASQKISTNLHWYQQKPNESPRILIKYASQTISGIPSRFSGSGSGTDFTLHINTVEPEDFSVYYCQQTNSWPLTFGSGTKLEIK
FALSE
